target: ORL-1 receptor (Rattus norvegicus)
Sequence (P35370 whole entry): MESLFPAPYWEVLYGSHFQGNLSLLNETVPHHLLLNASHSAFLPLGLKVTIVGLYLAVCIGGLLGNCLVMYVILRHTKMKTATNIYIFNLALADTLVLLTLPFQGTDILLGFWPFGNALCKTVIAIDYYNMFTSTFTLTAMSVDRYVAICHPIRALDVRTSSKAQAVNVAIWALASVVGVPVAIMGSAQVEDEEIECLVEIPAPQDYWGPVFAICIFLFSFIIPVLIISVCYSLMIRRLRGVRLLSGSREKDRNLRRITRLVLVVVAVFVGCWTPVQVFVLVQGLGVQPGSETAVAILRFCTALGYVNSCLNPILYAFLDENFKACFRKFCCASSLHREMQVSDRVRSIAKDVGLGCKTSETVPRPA
assay_metric: pIC50
Friendly reminder that pIC50 comes from taking -log10 of the concentration in mol/L.

Name the reported pIC50 value associated with the compound CCc1ccc(OCc2ccccc2C(=O)Nc2ccc3nc(C)cc(N)c3c2)cc1.Cl [compound D, hydrochloride] 6.30

###

biological target: ORL-1 receptor (Rattus norvegicus)
assay_metric: Ki (nM)
Answer format: numeric, nM implied, no suffix.

# Ki lookup, item CCc1ccc(OCc2ccccc2C(=O)Nc2ccc3nc(C)cc(N)c3c2)cc1.Cl [compound D, hydrochloride] 60.6
